# key: entry, value: MIC
- System: M. tuberculosis H37Rv
- assayProcedure: Antitubercular activity assay, broth dilution, auto-luminescent strain
- Type: cell-based, Mycobacterium tuberculosis
- settings: Mycobacterium tuberculosis, H37RV, Day 3rd; read-out: MICs against H37Rv, Day 3rd
Starred links: 1 amine or outer side, 2 acyl side, 3 side chain; linkers in the order of their positions; H or OH if unused. Non-standard residues stand in square brackets, D forms with d. Residues, ends and D or L forms follow the SMILES beside them. Groups on a side chain read outwards from the residue. X8 = O=C(CCc1c[nH]c2ccccc12)Oc1ccc(C[C@H](N[*:1])C(=O)[*:2])cc1[N+](=O)[O-]; X10 = CC[C@H](C)[C@H](NC(=O)[C@@H](C)C[C@@H](C(=O)[*:2])N(C)[*:1])C(=O)OC; Trp(1-(1,1-Me2-allyl)) = C=CC(C)(C)n1cc(C[C@H](N)C(=O)O)c2ccccc21; X5 = O=C(Oc1ccc(C[C@H](N[*:1])C(=O)[*:2])cc1[N+](=O)[O-])c1cnccn1; NMeGlu(4S-Me) = C[C@@H](C[C@@H](C(=O)[*:2])N(C)[*:1])C(=O)[*:3]; X14 = C[C@@H](C[C@@H](C(=O)[*:2])N(C)[*:1])C(=O)NCc1ccc(Cl)cc1; X9 = CSCCC(=O)Oc1ccc(C[C@H](N[*:1])C(=O)[*:2])cc1[N+](=O)[O-]; Tyr(3-NO2) = N[C@@H](Cc1ccc(O)c([N+](=O)[O-])c1)C(=O)O; Gly(E-crotyl) = C/C=C/C[C@H](N)C(=O)O; NMeL = CN[C@@H](CC(C)C)C(=O)O

| compound | readingUnit | MIC |
| --- | --- | --- |
| C=CC(C)(C)n1cc(C[C@@H]2NC(=O)[C@H](C/C=C/C)NC(=O)[C@H](CC(C)C)NC(=O)[C@H](C[C@H](C)C(=O)N[C@@H](CCCNC(=N)N)C(=O)OC)N(C)C(=O)[C@H](C)NC(=O)[C@H](Cc3ccc(O)c([N+](=O)[O-])c3)NC(=O)[C@H](CC(C)C)N(C)C2=O)c2ccccc21 [Compound 4, ilamycin NJL4] (cyclo(A[NMeGlu(4S-Me)]([Arg-OMe])L[Gly(E-crotyl)][Trp(1-(1,1-Me2-allyl))][NMeL][Tyr(3-NO2)])) | µM | 26.4 |
| C=CC(C)(C)n1cc(C[C@@H]2NC(=O)[C@H](C/C=C/C)NC(=O)[C@H](CC(C)C)NC(=O)[C@H](C[C@H](C)C(=O)O)N(C)C(=O)[C@H](C)NC(=O)[C@H](Cc3ccc(OC(=O)c4cnccn4)c([N+](=O)[O-])c3)NC(=O)[C@H](CC(C)C)N(C)C2=O)c2ccccc21 [Compound 15, ilamycin NJL15] (cyclo(A[NMeGlu(4S-Me)]L[Gly(E-crotyl)][Trp(1-(1,1-Me2-allyl))][NMeL][X5])) | µM | 27.9 |
| C=CC(C)(C)n1cc(C[C@@H]2NC(=O)[C@H](C/C=C/C)NC(=O)[C@H](CC(C)C)NC(=O)[C@H](C[C@H](C)C(=O)N[C@H](C(=O)OC)[C@@H](C)CC)N(C)C(=O)[C@H](C)NC(=O)[C@H](Cc3ccc(O)c([N+](=O)[O-])c3)NC(=O)[C@H](CC(C)C)N(C)C2=O)c2ccccc21 [Compound 3, ilamycin NJL3] (cyclo(A[X10]L[Gly(E-crotyl)][Trp(1-(1,1-Me2-allyl))][NMeL][Tyr(3-NO2)])) | µM | 6.8 |
| C=CC(C)(C)n1cc(C[C@@H]2NC(=O)[C@H](C/C=C/C)NC(=O)[C@H](CC(C)C)NC(=O)[C@H](C[C@H](C)C(=O)N[C@@H](Cc3ccccc3)C(=O)OC)N(C)C(=O)[C@H](C)NC(=O)[C@H](Cc3ccc(O)c([N+](=O)[O-])c3)NC(=O)[C@H](CC(C)C)N(C)C2=O)c2ccccc21 [Compound 7, ilamycin NJL7] (cyclo(A[NMeGlu(4S-Me)]([Phe-OMe])L[Gly(E-crotyl)][Trp(1-(1,1-Me2-allyl))][NMeL][Tyr(3-NO2)])) | µM | 26.6 |
| C=CC(C)(C)n1cc(C[C@@H]2NC(=O)[C@H](C/C=C/C)NC(=O)[C@H](CC(C)C)NC(=O)[C@H](C[C@H](C)C(=O)O)N(C)C(=O)[C@H](C)NC(=O)[C@H](Cc3ccc(OC(=O)CCSC)c([N+](=O)[O-])c3)NC(=O)[C@H](CC(C)C)N(C)C2=O)c2ccccc21 [Compound 18, ilamycin NJL18] (cyclo(A[NMeGlu(4S-Me)]L[Gly(E-crotyl)][Trp(1-(1,1-Me2-allyl))][NMeL][X9])) | µM | 28 |
| C=CC(C)(C)n1cc(C[C@@H]2NC(=O)[C@H](C/C=C/C)NC(=O)[C@H](CC(C)C)NC(=O)[C@H](C[C@H](C)C(=O)O)N(C)C(=O)[C@H](C)NC(=O)[C@H](Cc3ccc(O)c([N+](=O)[O-])c3)NC(=O)[C@H](CC(C)C)N(C)C2=O)c2ccccc21 [ilamycin F, reference compound] (cyclo(A[NMeGlu(4S-Me)]L[Gly(E-crotyl)][Trp(1-(1,1-Me2-allyl))][NMeL][Tyr(3-NO2)])) | µM | 30.7 |
| C=CC(C)(C)n1cc(C[C@@H]2NC(=O)[C@H](C/C=C/C)NC(=O)[C@H](CC(C)C)NC(=O)[C@H](C[C@H](C)C(=O)O)N(C)C(=O)[C@H](C)NC(=O)[C@H](Cc3ccc(OC(=O)CCc4c[nH]c5ccccc45)c([N+](=O)[O-])c3)NC(=O)[C@H](CC(C)C)N(C)C2=O)c2ccccc21 [Compound 16, ilamycin NJL16] (cyclo(A[NMeGlu(4S-Me)]L[Gly(E-crotyl)][Trp(1-(1,1-Me2-allyl))][NMeL][X8])) | µM | 26.4 |
| C=CC(C)(C)n1cc(C[C@@H]2NC(=O)[C@H](C/C=C/C)NC(=O)[C@H](CC(C)C)NC(=O)[C@H](C[C@H](C)C(=O)NCc3ccc(Cl)cc3)N(C)C(=O)[C@H](C)NC(=O)[C@H](Cc3ccc(O)c([N+](=O)[O-])c3)NC(=O)[C@H](CC(C)C)N(C)C2=O)c2ccccc21 [Compound 11, ilamycin NJL11] (cyclo(A[X14]L[Gly(E-crotyl)][Trp(1-(1,1-Me2-allyl))][NMeL][Tyr(3-NO2)])) | µM | 3.4 |

meta.source: paper PMC8586704
